Assay: self-splicing fitness, log relative to wild type (ln ratio); higher = more splicing; Tetrahymena group I intron in knt gene, E. coli kanamycin selection, DiMSum; sequences stand for … in CUCUCU…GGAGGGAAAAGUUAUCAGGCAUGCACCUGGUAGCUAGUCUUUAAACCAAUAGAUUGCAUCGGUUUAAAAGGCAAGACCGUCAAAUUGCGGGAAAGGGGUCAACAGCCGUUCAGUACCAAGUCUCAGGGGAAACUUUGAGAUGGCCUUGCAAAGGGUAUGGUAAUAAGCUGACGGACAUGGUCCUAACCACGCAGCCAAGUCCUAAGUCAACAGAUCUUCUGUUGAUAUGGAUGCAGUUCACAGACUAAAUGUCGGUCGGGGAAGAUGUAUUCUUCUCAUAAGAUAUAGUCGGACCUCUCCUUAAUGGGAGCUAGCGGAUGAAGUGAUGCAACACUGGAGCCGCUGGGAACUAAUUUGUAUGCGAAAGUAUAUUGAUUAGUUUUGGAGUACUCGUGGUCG;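 further: selection with 25 µg/mL kanamycin versus none on LB agar overnight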
Settings: 30 °C
Reported self-splicing fitness (ln) is given for each of the following sequences.
The answer should be written as a number, with no unit following it.

Example cases with answers are listed next.
biosequence	self-splicing fitness (ln)
AAUUAGCAAUAUUACGCCUC	-1.22
CCGCAGCAAUAUUACGUCUA	-1.79
CAAAAGCAAUAUUACGGCCG	0.257
UUCCAGCAAUAUUACGUCAG	-1.75
GAUGAGCAAUAUUACGAAAU	-1.53

Prompt: Please look up its self-splicing fitness (ln): `AACGAGCAAUAUUACGCCCU`
Completion: -1.66

Prompt: Please look up its self-splicing fitness (ln): `UUUUAGCAAUAUUACGCGAC`
Completion: -2.52

Prompt: Please look up its self-splicing fitness (ln): `ACUUAGCAAUAUUACGUAGU`
Completion: -2.87

Prompt: Please look up its self-splicing fitness (ln): `CCGCAGCAAUAUUACGAUCA`
Completion: -2.72

Prompt: Please look up its self-splicing fitness (ln): `GCCCAGCAAUAUUACGUAGC`
Completion: -0.413

Prompt: Please look up its self-splicing fitness (ln): `AUCAAGCAAUAUUACGAACU`
Completion: -0.00363

Prompt: Please look up its self-splicing fitness (ln): `GCAUAGCAAUAUUACGUAAA`
Completion: -2.43
